experimentNotes: Population PK analysis of ZTI-01, pooled Phase 1 healthy subjects and Phase 2/3 cUTI/AP patients
Format: in vivo, human
conditions: human, in vivo, 6 g, geometric mean; infected Phase 2/3 patients (n = 214), ZTI-01-200; population PK model fit; read-out: t1/2, β (converted)
propertyLabel: half-life (h)
Form entry: value (h) — number only.

compound C[C@@H]1O[C@@H]1P(=O)(O)O [fosfomycin] , half-life observed: 2.67

* * *

experimentNotes: Population PK analysis of ZTI-01, pooled Phase 1 healthy subjects and Phase 2/3 cUTI/AP patients
Type: in vivo, human
conditions: human, in vivo, 6 g, geometric mean; infected Phase 2/3 patients (n = 214), ZTI-01-200; population PK model fit; read-out: t1/2, γ (converted)
propertyLabel: half-life (h)
Please state the figure in h; there is no need to write the unit.

Record C[C@@H]1O[C@@H]1P(=O)(O)O , field half-life: 4.99

* * *

experimentNotes: Population PK analysis of ZTI-01, pooled Phase 1 healthy subjects and Phase 2/3 cUTI/AP patients
Type: in vivo, human
conditions: human, in vivo, 6 g, geometric mean; infected Phase 2/3 patients (n = 214), ZTI-01-200; population PK model fit; read-out: VSS
propertyLabel: Vd
Just the number plus its unit, please.

Form: compound = C[C@@H]1O[C@@H]1P(=O)(O)O [fosfomycin] ; Vd = 30.9 L

* * *

experimentNotes: Population PK analysis of ZTI-01, pooled Phase 1 healthy subjects and Phase 2/3 cUTI/AP patients
Type: in vivo, human
conditions: human, in vivo, 6 g; geometric mean; infected Phase 2/3 patients (n = 214), ZTI-01-200, doses by baseline renal function; population PK model fit; read-out: AUC0-24
propertyLabel: AUC(0-t)
# output: numeric value plus its unit

Measured AUC(0-t) of C[C@@H]1O[C@@H]1P(=O)(O)O : 2490 µg·h/mL

* * *

experimentNotes: Population PK analysis of ZTI-01, pooled Phase 1 healthy subjects and Phase 2/3 cUTI/AP patients
Assay type: in vivo, human
conditions: human, in vivo, 6 g, geometric mean; infected Phase 2/3 patients (n = 214), ZTI-01-200; population PK model fit
propertyLabel: Cmax (µg/mL)
Give just the number in µg/mL; leave the unit off.

Entry C[C@@H]1O[C@@H]1P(=O)(O)O , Cmax reported as 364
